test: Phage ELISA, tooth enamel-binding assay (unpolished enamel blocks)
Design: species or system bovine
experimental_context: phage ELISA on unpolished enamel, over 10^10 pfu phage; no-phage control 0.193
property: O.D. at 450 nm

LNDQRKPGPPTMPTHSPAVG (Tooth-binding peptide) [BoEn 5]    0.944

[I] VGTMKQHPTTTQPPRVSATN (Tooth-binding peptide) [BoEn 9]
[II] YSETPNDQKPNPHYKVSGTK (Tooth-binding peptide) [BoEn 10]
Prompt: So which one has the bigger O.D. at 450 nm here, I or II ? Give the label under which the chosen entry appears.
Completion: II

[P] AANPHTEWDRDAFQLAMPPK (Tooth-binding peptide) [BoEn 1]
[Q] NTCATSPNSYTCSN (Tooth-binding peptide) [BoEn 6]
Prompt: Which record shows the lower O.D. at 450 nm: the first, P , or the second, Q ? Please identify the chosen entry by its label.
Completion: P
(P: 1.402, Q: 2.38)
